biological target: mouse ACVR2A (mouse, UniProt P27038 20-135, limits assumed); experiment: ELISA; further: test concentration or dose not given here
Sequence (P27038 20-135 limits assumed): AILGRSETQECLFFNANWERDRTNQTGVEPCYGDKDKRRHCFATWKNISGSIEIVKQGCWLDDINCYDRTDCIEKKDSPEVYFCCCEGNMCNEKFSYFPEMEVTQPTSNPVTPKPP
measured-metric: optical density (OD)
Could you give me the number in OD? Just the number is fine.

Consider 376_G01 (antibody, V domains shown, VH and VL only) VH: EVQLLESGGGLVQPGGSLRLSCAASGFTFDDYSMNWVRQAPGKGLEWVSGINYNSGYKSYADSVKGRFTISRDNSKNTLYLQMNSLRAEDTAVYYCARSATWHDTHLDYWGQGTLVTVSS VL: DIQMTQSPSSLSASVGDRVTITCRASQSILSYVNWYQQKPGKAPKLVIYAVTSRASGVPSRFSGSGSGTDFTLTISSLQPEDFATYYCQQSYELPLTFGGGTKVEIK . Its measured optical density is 3.66

Consider 368_H10 (antibody, V domains shown, VH and VL only) VH: EVQLLESGGGLVQPGGSLRLSCAASGFTFSSYSMNWVRQAPGKGLEWVSSINYNSGYKGYADSVKGRFTISRDNSKNTLYLQMNSLRAEDTAVYYCARSATWHDTHLDYWGQGTLVTVSS VL: DIQMTQSPSSLSASVGDRVTITCRASQSIVSYVNWYQQKPGKAPKLVIYAVTSLASGVPSRFSGSGSGTDFTLTISSLQPEDFATYYCQQSYETPLTFGGGTKVEIK . Its measured optical density is 2.16

Consider 373_A07 (antibody, V domains shown, VH and VL only) VH: EVQLLESGGGLVQPGGSLRLSCAASGFTFSSYSMNWVRQAPGKGLEWVSNINYNGGYTGYADSVKGRFTISRDNSKNTLYLQMNSLRAEDTAVYYCARSATWHDTHLDYWGQGTLVTVSS VL: DIQMTQSPSSLSASVGDRVTITCRASQSILTYVNWYQQKPGKAPKLLIYAATSRASGVPSRFSGSGSGTDFTLTISSLQPEDFATYYCQQSDNLPLTFGGGTKVEIK . Its measured optical density is 3.59

Consider 365_G02 (antibody, V domains shown, VH and VL only) VH: EVQLLESGGGLVQPGGSLRLSCAASGFTFSDYSMNWVRQAPGKGLEWVSNINYNSGYKGYADSVKGRFTISRDNSKNTLYLQMNSLRAEDTAVYYCARSATWHDTHLDYWGQGTLVTVSS VL: DIQMTQSPSSLSASVGDRVTITCRASQSIVTYLNWYQQKPGKAPKLVIYAVTSLHSGVPSRFSGSGSGTDFTLTISSLQPEDFATYYCQQSYELPLTFGGGTKVEIK . Its measured optical density is 2.15

Consider 366_F06 (antibody, V domains shown, VH and VL only) VH: EVQLLESGGGLVQPGGSLRLSCAASGFTFSDYGMNWVRQAPGKGLEWVSSINYNGGYTSYADSVKGRFTISRDNSKNTLYLQMNSLRAEDTAVYYCARSATWHDTHLDYWGQGTLVTVSS VL: DIQMTQSPSSLSASVGDRVTITCRASQSISTYLNWYQQKPGKAPKLLIYAATSLASGVPSRFSGSGSGTDFTLTISSLQPEDFATYYCQQSYSNPLTFGGGTKVEIK . Its measured optical density is 2.15
